studyTarget: HCMV polymerase (Human cytomegalovirus, UniProt P08546)
Construct: made in house; host or cells: recombinant baculovirus-infected SF-9 cells
Sequence (P08546 whole entry): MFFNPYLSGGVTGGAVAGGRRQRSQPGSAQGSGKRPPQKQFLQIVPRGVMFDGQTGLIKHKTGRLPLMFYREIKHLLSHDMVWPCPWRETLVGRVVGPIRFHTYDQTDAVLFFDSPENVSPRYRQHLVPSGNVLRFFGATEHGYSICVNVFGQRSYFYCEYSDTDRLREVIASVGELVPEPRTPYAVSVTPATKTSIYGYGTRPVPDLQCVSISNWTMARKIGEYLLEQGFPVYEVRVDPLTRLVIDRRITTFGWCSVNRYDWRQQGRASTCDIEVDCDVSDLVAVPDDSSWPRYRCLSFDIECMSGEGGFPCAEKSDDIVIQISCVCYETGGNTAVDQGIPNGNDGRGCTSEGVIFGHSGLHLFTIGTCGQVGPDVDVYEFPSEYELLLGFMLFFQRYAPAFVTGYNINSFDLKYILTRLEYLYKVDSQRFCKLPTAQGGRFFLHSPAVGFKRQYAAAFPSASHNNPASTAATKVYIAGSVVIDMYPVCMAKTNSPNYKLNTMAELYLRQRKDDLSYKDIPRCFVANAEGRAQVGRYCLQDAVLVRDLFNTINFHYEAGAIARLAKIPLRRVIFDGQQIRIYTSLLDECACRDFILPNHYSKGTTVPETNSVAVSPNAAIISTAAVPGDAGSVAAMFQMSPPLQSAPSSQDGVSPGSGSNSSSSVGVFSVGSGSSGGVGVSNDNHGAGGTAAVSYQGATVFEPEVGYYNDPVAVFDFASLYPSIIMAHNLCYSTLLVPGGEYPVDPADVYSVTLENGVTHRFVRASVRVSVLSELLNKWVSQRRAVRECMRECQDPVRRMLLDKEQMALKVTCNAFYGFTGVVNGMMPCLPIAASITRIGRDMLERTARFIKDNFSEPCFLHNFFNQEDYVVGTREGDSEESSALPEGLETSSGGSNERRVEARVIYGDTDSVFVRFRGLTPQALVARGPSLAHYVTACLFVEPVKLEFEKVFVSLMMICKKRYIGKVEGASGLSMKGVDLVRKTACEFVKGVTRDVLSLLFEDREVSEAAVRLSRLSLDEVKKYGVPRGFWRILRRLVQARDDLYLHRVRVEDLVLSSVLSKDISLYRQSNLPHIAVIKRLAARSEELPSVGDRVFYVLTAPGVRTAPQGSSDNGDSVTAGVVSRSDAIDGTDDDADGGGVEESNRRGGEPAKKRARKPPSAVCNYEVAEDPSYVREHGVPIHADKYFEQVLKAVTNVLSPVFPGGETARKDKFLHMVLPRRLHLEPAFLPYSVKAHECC
runDescription: HCMV polymerase scintillation proximity assay (SPA), modified version
Type: biochemical
conditionSet: CMV polymerase; Table 1; modified assay with 4.5 mM DTT, compounds in 100% DMSO; read-out: Antiviral Selective Polymerase IC50 Values, CMV
endpointLabel: IC50 (µM)
// note: answer is a bare numeric in µM

# annotated cases, reported IC50 shown
N#Cc1cccc2c(O)c(C(=O)NCc3ccc(Cl)cc3)cnc12 [Example 48]: 6.5
COCCCc1cc(F)c2ncc(C(=O)NCc3ccc(Cl)cc3)c(O)c2c1 [Example 103]: 2.5
O=C(NCc1ccc(Cl)cc1)c1cnc2c(F)cc(S(=O)(=O)NCCCc3ccccc3)cc2c1O [Example 234]: 8.9

Next up:
Challenge: Item O=C(NCc1ccc(Cl)cc1)c1cnc2c(F)cc(S(=O)(=O)NCc3ccccc3Sc3ccccc3CO)cc2c1O [Example 260] has what recorded IC50?
Response given: 5.7

---

studyTarget: HCMV polymerase (Human cytomegalovirus)
Construct: made in house; host or cells: recombinant baculovirus-infected SF-9 cells
runDescription: HCMV polymerase scintillation proximity assay (SPA), modified version
Type: biochemical
conditionSet: CMV polymerase; Table 1; modified assay with 4.5 mM DTT, compounds in 100% DMSO; read-out: Antiviral Selective Polymerase IC50 Values, CMV
Procedure: The HCMV polymerase assay is performed using a scintillation proximity assay (SPA) as described in several references, such as N. D. Cook, et al., Pharmaceutical Manufacturing International, pages 49-53 (1992); K. Takeuchi, Laboratory Practice, September issue (1992); U.S. Pat. No. 4,568,649 (1986); which are incorporated by reference herein. Reactions are performed in 96-well plates. […] Plates are incubated 10 min. at 37° C., then equilibrated to room temperature, and counted on a Packard Topcount. […]
Measured pIC50, listed per entry for reference.
pIC50 field: float, defined as -log10 of concentration (mol/L).

These recorded examples may help you get a feel for the data.
Cc1ccc2ncc(C(=O)NCc3ccc(Cl)cc3)c(O)c2c1: 5.40
CCSCC#Cc1cc(F)c2ncc(C(=O)NCc3ccc(Cl)cc3)c(O)c2c1: 4.63
CC(C)(C)OP(=O)(OCCCc1cc(F)c2ncc(C(=O)NCc3ccc(Cl)cc3)c(O)c2c1)OC(C)(C)C: 4.28
O=C(NCc1ccc(Cl)cc1)c1c[nH]c2ccc(/C=C/CO)cc2c1=O: 6.17

// next entry
Challenge: Request the reported pIC50 associated with `CSc1cc(F)c2ncc(C(=O)NCc3ccc(Cl)cc3)c(O)c2c1`
Response given: 5.36

---

Let's go through some IC50 measurements on VZV polymerase (Varicella-zoster virus, UniProt P09252) together.
Sequence (P09252 whole entry): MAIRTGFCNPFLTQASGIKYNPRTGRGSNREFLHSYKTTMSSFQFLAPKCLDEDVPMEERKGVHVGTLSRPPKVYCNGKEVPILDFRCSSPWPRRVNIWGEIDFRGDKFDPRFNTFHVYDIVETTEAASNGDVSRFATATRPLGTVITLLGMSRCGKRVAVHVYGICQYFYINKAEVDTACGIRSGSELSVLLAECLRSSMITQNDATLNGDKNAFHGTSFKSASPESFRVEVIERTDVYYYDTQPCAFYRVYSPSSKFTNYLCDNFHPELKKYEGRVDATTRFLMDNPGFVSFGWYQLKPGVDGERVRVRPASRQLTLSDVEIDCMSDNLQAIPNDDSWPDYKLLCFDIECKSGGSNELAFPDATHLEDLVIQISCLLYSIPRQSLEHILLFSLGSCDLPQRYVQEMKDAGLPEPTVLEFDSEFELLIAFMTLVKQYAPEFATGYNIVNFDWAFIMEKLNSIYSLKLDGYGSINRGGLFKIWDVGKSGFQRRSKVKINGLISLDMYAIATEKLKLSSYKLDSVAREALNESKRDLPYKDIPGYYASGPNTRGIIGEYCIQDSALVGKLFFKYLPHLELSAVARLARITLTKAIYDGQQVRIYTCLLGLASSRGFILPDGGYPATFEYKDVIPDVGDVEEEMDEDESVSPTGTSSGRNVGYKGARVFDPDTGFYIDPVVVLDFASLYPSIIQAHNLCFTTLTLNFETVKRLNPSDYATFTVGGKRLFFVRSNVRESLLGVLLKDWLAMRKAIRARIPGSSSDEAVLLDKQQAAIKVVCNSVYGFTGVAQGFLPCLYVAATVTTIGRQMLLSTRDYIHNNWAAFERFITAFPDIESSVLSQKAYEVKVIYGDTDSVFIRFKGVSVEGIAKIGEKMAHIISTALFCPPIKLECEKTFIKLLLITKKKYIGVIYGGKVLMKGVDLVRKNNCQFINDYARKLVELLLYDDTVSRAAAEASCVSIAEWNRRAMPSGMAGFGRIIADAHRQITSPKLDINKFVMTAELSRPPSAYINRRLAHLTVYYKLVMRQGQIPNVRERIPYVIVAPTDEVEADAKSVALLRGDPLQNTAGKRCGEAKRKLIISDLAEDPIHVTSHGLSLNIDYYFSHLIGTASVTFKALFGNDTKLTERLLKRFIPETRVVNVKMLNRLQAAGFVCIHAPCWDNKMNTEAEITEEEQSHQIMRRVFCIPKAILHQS
State the answer as a number, implicitly in nM.

O=C(NCc1ccc(Cl)cc1)c1cnc2cc(-n3cccc3)ccc2c1O: 53800
O=C(NCc1ccc(Cl)cc1)c1cnc2ccc(F)cc2c1O: 3900
O=C(NCc1ccc(Cl)cc1)c1cnc2c(F)cc(CCCCO)cc2c1O: 90

Challenge: API: value(readout= IC50, system= VZV polymerase (Varicella-zoster virus, UniProt P09252), query= `CC(C)(CCO)c1ccc2ncc(C(=O)NCc3ccc(Cl)cc3)c(O)c2c1` )
Response given: 1700

Challenge: Form field - read-out: IC50; system: VZV polymerase (Varicella-zoster virus, UniProt P09252); submitted item: `O=C(NCc1ccc(Cl)cc1)c1c[nH]c2ccc(/C=C/CO)cc2c1=O`
Response given: 390

Challenge: Notebook entry, VZV polymerase (Varicella-zoster virus, UniProt P09252) assay: IC50 of `CS(=O)(=O)Nc1ccc2c(O)c(C(=O)NCc3ccc(Cl)cc3)cnc2c1` = ?
Response given: 14000

---

// reported IC50 for each item listed
studyTarget: HCMV polymerase (Human cytomegalovirus)
Construct: made in house; host or cells: recombinant baculovirus-infected SF-9 cells
runDescription: HCMV polymerase scintillation proximity assay (SPA), modified version
Format: biochemical
conditionSet: CMV polymerase; Table 1; modified assay with 4.5 mM DTT, compounds in 100% DMSO; read-out: Antiviral Selective Polymerase IC50 Values, CMV
Please give a number only; it is taken to be in µM.

Study these solved cases before continuing.
CC(C)(N)CNS(=O)(=O)c1cc(F)c2ncc(C(=O)NCc3ccc(Cl)cc3)c(O)c2c1: 90.2
CN(C)CC(=O)OCCCc1cc(F)c2ncc(C(=O)NCc3ccc(Cl)cc3)c(O)c2c1: 2.4
O=C(NCc1ccc(Cl)cc1)c1cnc2ccc(CCCO[PH](=O)O)cc2c1O: 8.6

Now for the compound whose IC50 we want.
Challenge: Please report the recorded IC50 for O=C(NCc1ccc(Cl)cc1)c1cnc2c(F)cc(S(=O)(=O)NCc3cccc4ccccc34)cc2c1O [Example 192] .
Response given: 1.6

---

Collected pIC50 values appear next to each entry.
studyTarget: HCMV polymerase (Human cytomegalovirus, UniProt P08546)
Construct: made in house; host or cells: recombinant baculovirus-infected SF-9 cells
runDescription: HCMV polymerase scintillation proximity assay (SPA), modified version
Format: biochemical
conditionSet: CMV polymerase; Table 1; modified assay with 4.5 mM DTT, compounds in 100% DMSO; read-out: Antiviral Selective Polymerase IC50 Values, CMV
Formally, pIC50 is defined as -log10 of the concentration c, with c in mol/L.

Challenge: What pIC50 appears in the records for this compound with HCMV polymerase (Human cytomegalovirus, UniProt P08546)? `O=C(NCc1ccc(Cl)cc1)c1cnc2c(C(F)(F)F)cc(CCCO)cc2c1O`
Response given: 5.66

Challenge: // fetch HCMV polymerase (Human cytomegalovirus, UniProt P08546) pIC50 for `O=C(NCc1ccc(Cl)cc1)c1cnc2c(OC(F)(F)F)cc(C#CCO)cc2c1O`
Response given: 5.74

Challenge: Reported pIC50 for HCMV polymerase (Human cytomegalovirus, UniProt P08546), given O=C(NCc1ccc(Cl)cc1)c1cnc2c(F)cc(S(=O)(=O)NCCO)cc2c1O [Example 197] ?
Response given: 4.71

Challenge: Entry `COc1ccc(CNS(=O)(=O)c2cc(F)c3ncc(C(=O)NCc4ccc(Cl)cc4)c(O)c3c2)cc1` , system HCMV polymerase (Human cytomegalovirus, UniProt P08546): what pIC50 was measured?
Response given: 4.90

Challenge: Provide value of pIC50 for this record tested with HCMV polymerase (Human cytomegalovirus, UniProt P08546): C[S+]([O-])c1cc(F)c2ncc(C(=O)NCc3ccc(Cl)cc3)c(O)c2c1 (stereo not drawn)
Response given: 5.14

---

studyTarget: HCMV polymerase (Human cytomegalovirus, UniProt P08546)
Construct: made in house; host or cells: recombinant baculovirus-infected SF-9 cells
runDescription: HCMV polymerase scintillation proximity assay (SPA), modified version
Type: biochemical
conditionSet: Antiviral Selective Polymerase IC50 Values, CMV, Table 1, modified assay with 4.5 mM DTT, compounds in 100% DMSO
Consider the following compounds and their measured IC50 readings.
Numeric only. Scale: µM

O=C(NCc1ccc(Cl)cc1)c1cnc2c(F)cc(S(=O)(=O)NCCCl)cc2c1O [Example 245]: 13.3

We next turn to a different compound, shown below.
Challenge: What does the data say about its IC50? Entry: O=C(NCc1ccc(Cl)cc1)c1cnc2c(F)cc(S(=O)(=O)NCCBr)cc2c1O [Example 244]
Response given: 19

---

Measured IC50 values are reported for all entries that follow.
studyTarget: HCMV polymerase (Human cytomegalovirus, UniProt P08546)
Construct: made in house; host or cells: recombinant baculovirus-infected SF-9 cells
runDescription: HCMV polymerase scintillation proximity assay (SPA), modified version
Format: biochemical
conditionSet: CMV polymerase; Table 1; modified assay with 4.5 mM DTT, compounds in 100% DMSO; read-out: Antiviral Selective Polymerase IC50 Values, CMV
Procedure: The HCMV polymerase assay is performed using a scintillation proximity assay (SPA) as described in several references, such as N. D. Cook, et al., Pharmaceutical Manufacturing International, pages 49-53 (1992); K. Takeuchi, Laboratory Practice, September issue (1992); U.S. Pat. No. 4,568,649 (1986); which are incorporated by reference herein. Reactions are performed in 96-well plates. […] Plates are incubated 10 min. at 37° C., then equilibrated to room temperature, and counted on a Packard Topcount. […]
Write the number in µM without appending the unit.

Some solved cases for reference:
COc1ccc2c(O)c(C(=O)NCc3ccc(Cl)cc3)cnc2c1: 4.9
COc1ccc(CNS(=O)(=O)c2cc(F)c3ncc(C(=O)NCc4ccc(Cl)cc4)c(O)c3c2)c(OC)c1: 16
O=C(NCc1ccc(Cl)cc1)c1cnc2ccc(NCCO)cc2c1O: 2.1
COCCOc1c(F)c(F)cc2c(O)c(C(=O)NCc3ccc(Cl)cc3)cnc12: 0.79
CS(=O)(=O)Nc1ccc2c(O)c(C(=O)NCc3ccc(Cl)cc3)cnc2c1: 17

Challenge: If you can, please state the reported IC50 value of `O=C(NCc1ccc(Cl)cc1)c1cnc2c(F)c(F)c(F)cc2c1O` .
Response given: 20.8

Challenge: Requested field: IC50. Item: `CC(=O)/C=C/c1cc(F)c2ncc(C(=O)NCc3ccc(Cl)cc3)c(O)c2c1`
Response given: 8.3

Challenge: Looking for the measured IC50 of `O=C(NCc1ccc(Cl)cc1)c1cnc2ccc(F)cc2c1O` , can you help?
Response given: 9.7
